This collection of values is drawn from paper PMC11040352.

- Procedure details: Ex vivo biodistribution in mice with MM1S tumor xenografts
- Test conditions: both sexes, NSG, mouse, kidney, 80 µCi, 5 min p.i.; MM1S xenograft mice; read-out: uptake in kidney
Measure: tissue uptake at 5 min (%ID/g)
Answer in %ID/g, number only, no unit symbol.

Reported tissue uptake at 5 min for CC[C@H](C)[C@@H]1NC(=O)[C@@H]2CCCN2C(=O)[C@H](Cc2ccccc2)NC(=O)[C@H](CC(=O)O)NC(=O)[C@H](C)NC(=O)[C@@H]2CSCc3cc(cc(c3)CSC[C@H](NC(=O)[C@H](C)NC(=O)CCOCCOCCOCCNC(=O)CN3CCN(CC(=O)O)CCN(CC(=O)O)CC3)C(=O)N[C@@H](C(C)C)C(=O)N3CCC[C@H]3C(=O)N2)CSC[C@@H](C(N)=O)NC(=O)[C@H](Cc2ccc(O)cc2)NC(=O)[C@H](Cc2c[nH]c3ccccc23)NC1=O [[^68Ga]Ga‐AJ206, metal not drawn] : what is it?
31.5
